Experiment: self-splicing fitness, log relative to wild type (ln ratio); higher = more splicing; Tetrahymena group I intron in knt gene, E. coli kanamycin selection, DiMSum; sequences stand for … in CUCUCU…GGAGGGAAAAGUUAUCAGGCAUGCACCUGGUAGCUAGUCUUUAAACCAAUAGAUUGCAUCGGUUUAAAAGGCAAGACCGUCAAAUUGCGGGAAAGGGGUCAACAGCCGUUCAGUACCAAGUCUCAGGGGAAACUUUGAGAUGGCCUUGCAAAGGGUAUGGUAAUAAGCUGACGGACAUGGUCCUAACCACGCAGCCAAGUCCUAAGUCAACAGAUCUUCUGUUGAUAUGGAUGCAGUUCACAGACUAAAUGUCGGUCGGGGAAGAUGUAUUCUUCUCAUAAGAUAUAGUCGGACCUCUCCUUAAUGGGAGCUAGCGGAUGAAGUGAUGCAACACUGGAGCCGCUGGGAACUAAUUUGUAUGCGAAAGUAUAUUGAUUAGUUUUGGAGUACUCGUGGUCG;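 note: selection with 25 µg/mL kanamycin versus none on LB agar overnight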
Conditions: 37 °C
Tick 1 if self-splicing fitness (ln) is -2 or greater. Tick 0 if self-splicing fitness (ln) is less than -2.

Q. Could you verify whether the entry `UGCGAGCAAUAUUACGACCU` shows self-splicing fitness (ln) of no less than -2?
A. 1

Q. Could you verify whether the entry `ACACAGCAAUAUUACGUGAG` shows self-splicing fitness (ln) of no less than -2?
A. 1

Q. Could you verify whether the entry `CUAAAGCAAUAUUACGAGCC` shows self-splicing fitness (ln) of no less than -2?
A. 1

Q. Could you verify whether the entry `AUAUAGCAAUAUUACGGACA` shows self-splicing fitness (ln) of no less than -2?
A. 1

Q. Could you verify whether the entry `AGUGAGCAAUAUUACGUUCC` shows self-splicing fitness (ln) of no less than -2?
A. 1

Q. Could you verify whether the entry `UCCCAGCAAUAUUACGCAUC` shows self-splicing fitness (ln) of no less than -2?
A. 1

Q. Could you verify whether the entry `UGAGAGCAAUAUUACGAUAG` shows self-splicing fitness (ln) of no less than -2?
A. 0

Q. Could you verify whether the entry `CAGCAGCAAUAUUACGGUCU` shows self-splicing fitness (ln) of no less than -2?
A. 1

Q. Could you verify whether the entry `GUGAAGCAAUAUUACGGCGC` shows self-splicing fitness (ln) of no less than -2?
A. 1

Q. Could you verify whether the entry `CAGAAGCAAUAUUACGUUCG` shows self-splicing fitness (ln) of no less than -2?
A. 1

Q. Could you verify whether the entry `CAUCAGCAAUAUUACGACAC` shows self-splicing fitness (ln) of no less than -2?
A. 0

Q. Could you verify whether the entry `UCUUAGCAAUAUUACGGGUA` shows self-splicing fitness (ln) of no less than -2?
A. 1

Q. Could you verify whether the entry `CCGAAGCAAUAUUACGCAUU` shows self-splicing fitness (ln) of no less than -2?
A. 0

Q. Could you verify whether the entry `GCAAAGCAAUAUUACGAAAC` shows self-splicing fitness (ln) of no less than -2?
A. 1

Q. Could you verify whether the entry `GAUCAGCAAUAUUACGACCC` shows self-splicing fitness (ln) of no less than -2?
A. 1

Q. Could you verify whether the entry `UGCUAGCAAUAUUACGAAUC` shows self-splicing fitness (ln) of no less than -2?
A. 0

Q. Could you verify whether the entry `UUGAAGCAAUAUUACGCGGG` shows self-splicing fitness (ln) of no less than -2?
A. 1

Q. Could you verify whether the entry `CGUCAGCAAUAUUACGGUCC` shows self-splicing fitness (ln) of no less than -2?
A. 1

Q. Could you verify whether the entry `UGGCAGCAAUAUUACGAAGC` shows self-splicing fitness (ln) of no less than -2?
A. 1

Q. Could you verify whether the entry `GCUAAGCAAUAUUACGCUAU` shows self-splicing fitness (ln) of no less than -2?
A. 0

Q. Could you verify whether the entry `GAGUAGCAAUAUUACGAUUG` shows self-splicing fitness (ln) of no less than -2?
A. 0

Q. Could you verify whether the entry `UUCCAGCAAUAUUACGGACC` shows self-splicing fitness (ln) of no less than -2?
A. 1

Q. Could you verify whether the entry `ACACAGCAAUAUUACGAAGC` shows self-splicing fitness (ln) of no less than -2?
A. 0

Q. Could you verify whether the entry `CCGUAGCAAUAUUACGAGAU` shows self-splicing fitness (ln) of no less than -2?
A. 0

Q. Could you verify whether the entry `CCAAAGCAAUAUUACGUCAG` shows self-splicing fitness (ln) of no less than -2?
A. 1

Q. Could you verify whether the entry `UGGCAGCAAUAUUACGAGGA` shows self-splicing fitness (ln) of no less than -2?
A. 1

Q. Could you verify whether the entry `CUUGAGCAAUAUUACGACGU` shows self-splicing fitness (ln) of no less than -2?
A. 0

Q. Could you verify whether the entry `CUCCAGCAAUAUUACGAAUA` shows self-splicing fitness (ln) of no less than -2?
A. 0

Q. Could you verify whether the entry `UAGAAGCAAUAUUACGCAAA` shows self-splicing fitness (ln) of no less than -2?
A. 1

Q. Could you verify whether the entry `UAGUAGCAAUAUUACGGCCC` shows self-splicing fitness (ln) of no less than -2?
A. 1

Q. Could you verify whether the entry `UAUCAGCAAUAUUACGAAUG` shows self-splicing fitness (ln) of no less than -2?
A. 1

Q. Could you verify whether the entry `CGGCAGCAAUAUUACGAAUC` shows self-splicing fitness (ln) of no less than -2?
A. 0

Q. Could you verify whether the entry `AUAGAGCAAUAUUACGAGGG` shows self-splicing fitness (ln) of no less than -2?
A. 1

The reported measurements were obtained from the supplement of paper PMC7877785.
